tested on: normal human melanocytes; test: Activity on constitutive melanogenesis: melanin production by normal human melanocytes in vitro; assay type: cell-based; conditions: Melanocyte, 72 hours incubation, optical density, maximum concentration tested 200 μM, read-out: IC50 (μM): concentration at which a 50% decrease in melanin synthesis is achieved
Endpoint label: IC50

>>> result("CC(=O)OCCC(C)c1ccc(OC(C)=O)cc1OC(C)=O (stereo not shown)")
"4.08 µM"
>>> result("CC(=O)OCCC(C)c1ccc(O)cc1O (stereo not shown) [Compound 3, 3-(2,4-dihydroxyphenyl) butyl acetate]")
"4.96 µM"
>>> result("CC(CCO)c1ccc(O)cc1O (stereo not shown)")
"3.61 µM"

As a next step, examine the compound that follows.
Query: Look up IC50: OCCCc1ccc(O)cc1O [compound (A), reference compound]
Response: 23.4 µM

Just for reference, patent US10457619B2 is where these values come from.
